Assign protein stability index to each entry below.
- METHOD_NOTES: protein stability index of a GFP-peptide fusion (GPS, HEK-293T) (PSI 1-6); higher = more stable;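 also: 24-mer peptide tiles fused after GFP, lentivirally expressed, FACS-sorted into six equal bins by GFP/DsRed ratio, decoded by Illumina sequencing, PSI is the read-weighted mean bin number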
- RECORDED_CONDITIONS: treatment: MLN4924 1 uM, 8 h; c terminus: native

State the recorded protein stability index for every item in the following list.
1. HRGCGDGCCCPSCYRRYRFTGFY [KRTAP19-2]
2. RRVWSPPRVHKVEMGFGGGGGAN [ZBTB22]
3. LDNLLAFVCDIRPEIHENYRING [ATP6V1G1]
4. PEVECLKANTNEVLWAVVAAFTK [GOLPH3]
5. KLTQRLEEMTQRMEALENRLRYR [MATN2]

Reply |
1. 3.31
2. 3.92
3. 2.47
4. 2.25
5. 2.79

State the recorded protein stability index for every item in the following list.
1. LLREEEYVAPPRGPLPTLQVVPL [TRAF3IP2]
2. DVAGNLDYKALSYVITHGEEKEE [MYL5]
3. RKPDPMCVFTYVQSLYNHLRRFE [SMTNL2]

Reply |
1: 2.05; 2: 3.56; 3: 2.72

====

- METHOD_NOTES: protein stability index of a GFP-peptide fusion (GPS, HEK-293T) (PSI 1-6); higher = more stable
- RECORDED_CONDITIONS: treatment: MLN4924 1 uM, 8 h; c terminus: a fixed tail appended
RECORDED_METRIC: protein stability index
One number for each entry.

PTTEPETEPEDDRGPVVPKHSTFG [GNAS]
5.27
EEDKRRKGEEVTPISAIRHEGKTD [EPB41L3]
5.66
YRQWHAKIFVENLRRQKSLRLEWE [IQUB]
1.87
SLRKGASLSNGQGSRVLHVVQTLY [NCK2]
2.57
VKRRRTASLSNQECQLYPRRSQQQ [SNURF]
4.45

State the recorded protein stability index for every item in the following list.
1. DSVSVNDIDLSLYIPRDVDETGIT [ZC3H15]
2. HVSDEDNNADLCLTDDKQVLNTQG [DLC1]
3. RGFSGGILAFLVLEAVAGALVVAL [TSPAN10]
4. LLKALVSELSEHLRDPLTSLSHTE [FCHSD1]
5. RRTAENKLDTKYPYVCHAELNAIM [DCTD]
6. IEDAAEPKEPAPPNGSAAEPPTEA [PALM]

Reply |
1: 4.36; 2: 5.46; 3: 2.43; 4: 2.2; 5: 2.37; 6: 5.47

State the recorded protein stability index for every item in the following list.
1. DSCVLTGPDDSLWDKHACPAYVGP [TRIB3]
2. DYIRRYLPVLRGFPAKYIYDPWNA [CRY1]

Reply |
[3.62, 2.16]

====

- METHOD_NOTES: protein stability index of a GFP-peptide fusion (GPS, HEK-293T) (PSI 1-6); higher = more stable
- RECORDED_CONDITIONS: treatment: DMSO; c terminus: a fixed tail appended
RECORDED_METRIC: protein stability index
Numbers only.

IWNILDLVVILLSIVAVGFHIFRT [PKD2L1]
3.15
ASMSPDATKPSHWCSVAYWEHRTR [SMAD6]
2.84
DMRNSATFKSFEDRVGTIKSKVVG [TPD52L2]
3.24
IQQGINAVNQEAMNNAQRIEKWVI [ACSBG2]
2.89
METHKELKPLLSPSSETTVTVELP [LYSMD4]
4.77

State the recorded protein stability index for every item in the following list.
1. RAPSRRHGVRAKVQPQARKKEMEM [CPN1]
2. KNGLSFIETSALDSTNVEAAFQTI [RAB11A]

Reply |
4.39
3.31

====

Assign protein stability index to each entry below.
- METHOD_NOTES: protein stability index of a GFP-peptide fusion (GPS, HEK-293T) (PSI 1-6); higher = more stable
- RECORDED_CONDITIONS: treatment: DMSO; c terminus: a fixed tail appended
One number for each entry.

Consider the following illustrative entries.
FRHLRLQYIISDLASARIIEQDAV [GMCL1]
2.6
ELPNIKREISETEAKALLKERQKK [TFE3]
3.26

State the recorded protein stability index for every item in the following list.
1. LRNNQISHKGAEELALALKGNTTL [LRRC45]
2. KPDYEYLRTLFTDLFEKKGYTFDY [CSNK1G1]
3. NSGLKPKDNEFTSKPWHWPINYQG [POMT2]

Reply |
1. 3.92
2. 2.4
3. 2.99

State the recorded protein stability index for every item in the following list.
1. PSSLGPLLPLQREPLYNWQATKAS [BTBD1]
2. APRVRTAFTMEQVRTLEGVFQHHQ [VENTX]

Reply |
3.36
3.33

State the recorded protein stability index for every item in the following list.
1. EKLLERQGQAKTPDSMFLAMLAVV [CDK11A]
2. LYQLEGNNQITCRNGQWSEPPKCL [CFHR2]
3. KILVGNRLHLAFKRQVPTEQAQAY [RAB40B]
4. DEGDEPMPIPEDLSTTSGGQQSSK [IKZF1]
5. VTQDGRKIYFTDSSSKWQRRDYLL [APMAP]
6. EEIRGGGLLKYCSLLVHGFKPACM [TENT5D]

Reply |
[1.95, 3.08, 2.07, 5.42, 2.51, 3.11]

====

- METHOD_NOTES: protein stability index of a GFP-peptide fusion (GPS, HEK-293T) (PSI 1-6); higher = more stable
- RECORDED_CONDITIONS: treatment: DMSO; c terminus: a fixed tail appended
RECORDED_METRIC: protein stability index
One number for each entry.

QCFFNGVFLGNKRSLSERTVDKCF [SPATS1]
2.13

State the recorded protein stability index for every item in the following list.
1. MLLGVPRLRQLKVRNDSCVVHEDF [PKD2L1]
2. QTIQKTTTRRIVDGKVVSETNDTK [KRT18]

Reply |
1. 2.46
2. 5.34

State the recorded protein stability index for every item in the following list.
1. EPEEEILGSDDEEQEDPADYCKGG [SRPK2]
2. MATESVDHELGRCTDSVVKYELMR [EHMT1]
3. NQLTHTDLKPENILFVNSEFETLY [CLK3]
4. MLCAASGNPDPEITWFKDFLPVDT [PTPRD]

Reply |
5.54
3.65
3.29
2.95

====

- METHOD_NOTES: protein stability index of a GFP-peptide fusion (GPS, HEK-293T) (PSI 1-6); higher = more stable
- RECORDED_CONDITIONS: treatment: DMSO; c terminus: a fixed tail appended
Rule: satisfied for protein stability index not less than 3, not satisfied for anything less.

Sample answers from the record:
DDIEEKTPISNEVEMESEEQIAER [KMT2E]
satisfied
AHLGEEAHKCLECGKCFSQNTHLT [ZNF263]
satisfied
NKNEVFYQCPDQMARNPAAIDMFI [FBXO3]
not satisfied

Ask | Please tell me: is the sequence TSDASFHPAFLPQRQAIKGAFYRR [KCNG1] at or over 3 in terms of protein stability index?
Reply | satisfied

Ask | Please tell me: is the sequence HMLNQVESKVKDILSKVQKNHVGK [FAM98B] at or over 3 in terms of protein stability index?
Reply | not satisfied

Ask | Please tell me: is the sequence AASISDGDCDAREEKQRELARKGS [FAM219A] at or over 3 in terms of protein stability index?
Reply | satisfied

Ask | Please tell me: is the sequence GYVANSSNCISGVCSVRGGEGRSR [KRT71] at or over 3 in terms of protein stability index?
Reply | satisfied

Ask | Please tell me: is the sequence `HLAPSEAKAADSPTRNDLESGLGH` at or over 3 in terms of protein stability index?
Reply | satisfied

Ask | Please tell me: is the sequence SEEAAVLQYASLVGQKCSERMLLF [ATE1] at or over 3 in terms of protein stability index?
Reply | not satisfied

Ask | Please tell me: is the sequence VVCASYEDYGHWLLCLRAVTHREG [PLEKHN1] at or over 3 in terms of protein stability index?
Reply | not satisfied

Ask | Please tell me: is the sequence GVSRGVGFIRFDKRIEAEEAIKGL [ELAVL3] at or over 3 in terms of protein stability index?
Reply | satisfied

Ask | Please tell me: is the sequence ERTGFSIRPVAGYLSPRDFLSGLA [TPH1] at or over 3 in terms of protein stability index?
Reply | not satisfied

====

- METHOD_NOTES: protein stability index of a GFP-peptide fusion (GPS, HEK-293T) (PSI 1-6); higher = more stable
- RECORDED_CONDITIONS: treatment: DMSO; c terminus: a fixed tail appended
RECORDED_METRIC: protein stability index
Answers are plain numbers.

Consider the following illustrative entries.
TFFEVSPLCNFNITESFTELARIV [RAB40B]
2.24
ELKTKLTKLEAEIVTLRHVLAAKE [TPD52L3]
3.44
EEDKRRKGEEVTPISAIRHEGKTD [EPB41L3]
5.59
YMDRFTVAGVLPDIEQFFNIGDSS [SPNS1]
2.71
GVGGAERLVLDAALALQARGCSVK [ALG2]
3.22

State the recorded protein stability index for every item in the following list.
1. SSTGNTALTYACAGGYVDVVKVLL [ANKRD17]
2. SLMDLAIEEGFNPVQASQLEEEFD [NFE2L1]

Reply |
[2.07, 5.35]
